# assay explanation: Acute toxicity test, oral
# measurement setup: mouse, in vivo, male ddy mice, 1% tragacanth suspension, 7 days
Entries annotated with measured LD50 at 168 h
Please state the figure in mg/kg; there is no need to write the unit.

Some entries whose results are on file:
                                   molecule  reading
0  O=C(O)/C=C\C(=O)Nc1cccc(CCc2nc3ccccc3s2)c1 [compound 353]     3310
1  CC(C)c1csc(/C=C/c2cccc(NC(=O)CCCC(=O)O)c2)n1 [compound 303]     2000
2  CCc1nc(/C=C/c2cccc(NC(=O)CCC(=O)O)c2)sc1C [compound 325]     2000

# query: LD50 at 168 h of entry CCc1nc(C=Cc2cccc(NCCCC(=O)O)c2)sc1C [compound 382]
1930

* * *

# assay explanation: Acute toxicity test, oral
# measurement setup: mouse, in vivo, male ddy mice, 1% tragacanth suspension, 7 days
Parameter: LD50 at 168 h. Scope: all listed entries.

Example entries and their recorded answers appear below.
                                   compound       reading
0  O=C(O)[C@H]1CCCC[C@H]1C(=O)Nc1cccc(/C=C/c2nc(-c3ccccc3)cs2)c1 (relative stereo)  > 3000 mg/kg
1  O=C(O)[C@H]1CCCC[C@H]1C(=O)Nc1cccc(/C=C/c2nc3ccccc3s2)c1 (relative stereo)  > 3000 mg/kg
2  O=C(Nc1cccc(CCc2nc3ccccc3s2)c1)[C@H]1CCCC[C@H]1C(=O)O (relative stereo)    1930 mg/kg

Query compound follows.
Query: LD50 at 168 h; subject: "Cc1nc(/C=C/c2cccc(NC(=O)/C=C\C(=O)O)c2)sc1C"
1560 mg/kg

* * *

# assay explanation: Acute toxicity test, oral
# measurement setup: mouse, in vivo, male ddy mice, 1% tragacanth suspension, 7 days
# Experimental: With 4 to 5 ddy-strain male mice of 6 weeks old as one group, the compound of the present invention was orally administered as a suspension in 1% tragacanth solution, and observation was conducted for 7 days and the number of dead mice was examined to obtain the results shown in Table 5.
# LD50 at 168 h values compiled below

Item under review: "O=C(O)c1ccccc1C(=O)Nc1cccc(/C=C/c2nc3ccccc3s2)c1" . Reported LD50 at 168 h?
> 3000 mg/kg

Could you share which LD50 at 168 h value was measured for O=C(O)[C@@H]1CCCC[C@H]1C(=O)Nc1cccc(/C=C/c2nc3ccccc3s2)c1 (relative stereo) ?
< 3000 mg/kg

What value of LD50 at 168 h has been reported for the following compound? "O=C([O-])CCCNc1cccc(/C=C/c2nc3ccccc3s2)c1.[Na+]"
2000 to 3000 mg/kg

Entry "CCCCCc1csc(/C=C/c2cccc(NC(=O)c3ccccc3C(=O)O)c2)n1" has what LD50 at 168 h?
> 3000 mg/kg

* * *

LD50 at 168 h listing for selected compounds.
# assay explanation: Acute toxicity test, oral
# measurement setup: mouse, in vivo, male ddy mice, 1% tragacanth suspension, 7 days
Structures can show the parent of a compound that is named as a salt.

Known LD50 at 168 h results, listed for orientation:
>>> print(df.to_string())
                                   compound             reading
0  O=C(O)/C=C\C(=O)Nc1cccc(/C=C/c2nc3ccccc3s2)c1 [compound 213, sodium salt]        > 3000 mg/kg
1  CCc1nc(/C=C/c2cccc(NC(=O)[C@H]3CCCC[C@H]3C(=O)O)c2)sc1C (relative stereo)          1380 mg/kg
2  Cc1nc(/C=C/c2cccc(NC(=O)c3ccccc3C(=O)O)c2)sc1C  2000 to 3000 mg/kg
3  O=C(O)[C@H]1CCCC[C@H]1C(=O)Nc1cccc(/C=C/c2nc3cc(Cl)ccc3s2)c1 (relative stereo)        > 3000 mg/kg
4  CCc1nc(/C=C/c2cccc(NC(=O)CCCC(=O)O)c2)sc1C        < 3000 mg/kg
5  Cc1ccc2sc(/C=C/c3cccc(NC(=O)[C@@H]4CCCC[C@@H]4C(=O)O)c3)nc2c1 (relative stereo)          3000 mg/kg
6  O=C(O)[C@H]1CC=CC[C@H]1C(=O)Nc1cccc(/C=C/c2nc(-c3ccccc3)cs2)c1 (relative stereo)  1000 to 2000 mg/kg
7  CC(C)c1csc(/C=C/c2cccc(NC(=O)c3ccccc3C(=O)O)c2)n1  1000 to 2000 mg/kg
8  Cc1nc(/C=C/c2cccc(NC(=O)[C@H]3CC=CC[C@H]3C(=O)O)c2)sc1C (relative stereo)          1030 mg/kg
9  O=C(O)c1ccccc1C(=O)Nc1cccc(/C=C/c2nc(-c3ccccc3)cs2)c1        > 3000 mg/kg

I'd like to know its LD50 at 168 h. The compound in question is Cc1nc(/C=C/c2cccc(NC(=O)[C@H]3CCCC[C@H]3C(=O)O)c2)sc1C (relative stereo)
1000 to 2000 mg/kg
